- System: RXF 393
- ASSAY_TEXT: NCI tumour cell line growth inhibition, 48 h
Activity calls are given as the source filed them. Rule as the data show it: active = GI50 up to about 1.1 µM and inactive = higher.
READOUT_TYPE: GI50

1. O=C1Oc2ccccc2N/C1=C/C(=O)c1ccc([N+](=O)[O-])cc1 | > 100 µM (inactive)
2. O=c1c2cccnc2ncn1CCN1CCCC1 | > 100 µM (inactive)
3. Fc1c(F)c(F)c2c(c1F)CSc1nc3ccccc3n1-2 | > 100 µM (inactive)
4. COc1ccc(C)cc1C1CCC(=O)O1 (stereo not given) | > 100 µM (inactive)
5. Nc1nc(-c2ccccc2)cc(-c2ccc(F)cc2)c1-c1ccc(Cl)cc1 | > 100 µM (inactive)

Provide reported GI50 for each item, in the same order as listed.
1. c1ccc2c(c1)ncn2CCn1ccnc1
2. CC1NOC(=O)C1/N=N/c1ccccc1Cl (stereo not given)
3. C[C@]12CCC3c4ccc(OC(=O)c5ccccc5)cc4CC[C@H]3C1CC[C@@H]2OC(=O)C12OC1CCC2=O (stereo not given in full)
4. CN(CCCNC(=O)c1nn(-c2ccccc2)c2c1ccc1ccccc12)CCCNC(=O)c1nn(-c2ccccc2)c2c1ccc1ccccc12
5. C=CCOC1=C(OC(C)=O)C(C2COC(C)(C)O2)OC1=O (stereo not given)
6. CN(C)Cc1cc(/N=N/c2ccccc2)ccc1O
7. O=C1c2ccccc2C(=O)c2c(NCCCN3CCOCC3)ccc(NCCCN3CCOCC3)c21
8. CC1(C(=O)O)CCC2(C)CCC3(C)C(=CC(=O)C4C5(C)CCC(O)C(C)(C)C5CCC43C)C2C1 (stereo not given)

1. > 100 µM (inactive)
2. 26.4 µM (inactive)
3. 2.41 µM (inactive)
4. 1.76 µM (inactive)
5. 21.2 µM (inactive)
6. 3.94 µM (inactive)
7. 8.36 µM (inactive)
8. 36.1 µM (inactive)

Provide reported GI50 for each item, in the same order as listed.
1. C1=CC(=NN=P(c2ccccc2)(c2ccccc2)c2ccccc2)C=C1
2. CO/C(=N\N=C(/c1ccccc1)C(F)(F)F)c1ccncc1

1: > 100 µM (inactive); 2: 16.3 µM (inactive)
